Values were extracted from the supplement of paper PMC6555819.

Test system: LXRa homodimer (NR concentration 270 nM)
Assay: PBM binding z-score (relative to random genomic background probes); higher = stronger binding; sequences stand for … in GC…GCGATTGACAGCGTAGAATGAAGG
endpointName: PBM binding z-score

Past entries and their recorded results:
sequencerecord=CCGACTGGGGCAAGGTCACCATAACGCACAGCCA reported=0.471
sequencerecord=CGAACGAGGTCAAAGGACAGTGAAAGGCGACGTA reported=0.528
sequencerecord=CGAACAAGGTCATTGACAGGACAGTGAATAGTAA reported=1.2
sequencerecord=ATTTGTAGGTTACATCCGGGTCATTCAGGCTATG reported=2.84
sequencerecord=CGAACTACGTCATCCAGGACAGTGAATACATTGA reported=0.121

Next:
// query Find the recorded PBM binding z-score belonging to CAAACTAGGTCACTAAAGGTCAAAGTCGAATGAC and report it.
// result 10.4

* * *

Tested on: PPARg:RXRa 90nM:30nM, anti-RXR (NR concentration 90 nM, RXRa partner concentration 30 nM)
Test: PBM binding z-score (relative to random genomic background probes); higher = stronger binding; sequences stand for … in GC…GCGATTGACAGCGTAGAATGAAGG
# label = satisfied if PBM binding z-score >= 5 else not satisfied

Examples from the recorded data:
sequencerecord=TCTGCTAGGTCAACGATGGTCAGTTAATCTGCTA classification="not satisfied"
sequencerecord=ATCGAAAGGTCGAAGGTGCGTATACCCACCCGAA classification="not satisfied"
sequencerecord=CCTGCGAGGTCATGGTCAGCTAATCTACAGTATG classification="not satisfied"

// query Hello, I need to know if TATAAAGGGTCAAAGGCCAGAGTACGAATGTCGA has measured PBM binding z-score not below 5. Thanks!
// result satisfied

// query Hello, I need to know if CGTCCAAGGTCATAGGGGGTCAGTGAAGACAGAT has measured PBM binding z-score not below 5. Thanks!
// result satisfied

// query Hello, I need to know if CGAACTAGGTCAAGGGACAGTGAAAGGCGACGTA has measured PBM binding z-score not below 5. Thanks!
// result satisfied

// query Hello, I need to know if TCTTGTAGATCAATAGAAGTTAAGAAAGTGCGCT has measured PBM binding z-score not below 5. Thanks!
// result not satisfied

// query Hello, I need to know if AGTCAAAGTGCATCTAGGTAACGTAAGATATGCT has measured PBM binding z-score not below 5. Thanks!
// result not satisfied

* * *

Tested on: PPARg DBDmut:RXRa IVT, anti-PPARg (DBD mutation: PPARg1 K132A/R137A, NR concentration 270 nM, RXRa partner concentration 90 nM)
Assay: PBM binding z-score (relative to random genomic background probes); higher = stronger binding; sequences stand for … in GC…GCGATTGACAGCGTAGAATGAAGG
endpointName: PBM binding z-score
Returns: the value as a bare number; no unit string appended.

Past entries and their recorded results:
sequencerecord=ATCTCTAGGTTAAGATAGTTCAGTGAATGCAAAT reported=1.33
sequencerecord=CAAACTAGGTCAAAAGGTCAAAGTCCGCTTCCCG reported=1.83
sequencerecord=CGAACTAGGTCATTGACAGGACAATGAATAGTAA reported=3.96
sequencerecord=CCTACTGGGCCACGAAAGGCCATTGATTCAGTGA reported=-0.487
sequencerecord=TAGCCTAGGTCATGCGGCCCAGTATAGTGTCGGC reported=-0.45
sequencerecord=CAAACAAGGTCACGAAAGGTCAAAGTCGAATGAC reported=3.1
sequencerecord=CAAACTAGGTCACAGTGGTCAAAGTCCGTGCGTA reported=2.06
sequencerecord=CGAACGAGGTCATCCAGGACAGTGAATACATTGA reported=3.53

// query Find the recorded PBM binding z-score belonging to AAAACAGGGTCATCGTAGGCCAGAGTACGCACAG and report it.
// result 4.19

// query Find the recorded PBM binding z-score belonging to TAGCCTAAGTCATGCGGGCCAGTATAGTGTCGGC and report it.
// result -0.862

// query Find the recorded PBM binding z-score belonging to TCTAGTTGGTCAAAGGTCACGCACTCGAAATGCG and report it.
// result 3.73

// query Find the recorded PBM binding z-score belonging to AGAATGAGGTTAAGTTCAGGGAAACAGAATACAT and report it.
// result 1.62

* * *

Test system: PPARg:RXRa (NR concentration 180 nM, RXRa partner concentration 90 nM)
Assay: PBM binding z-score (relative to random genomic background probes); higher = stronger binding; sequences stand for … in GC…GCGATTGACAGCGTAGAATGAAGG
# label = 1 if PBM binding z-score >= 5 else 0

Examples from the recorded data:
sequencerecord=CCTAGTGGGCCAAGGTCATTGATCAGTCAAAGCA classification=0
sequencerecord=ATCGAAAGGTCAAGGTGAGTATAGAGAAAGGGAA classification=1
sequencerecord=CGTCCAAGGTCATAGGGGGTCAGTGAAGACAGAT classification=1
sequencerecord=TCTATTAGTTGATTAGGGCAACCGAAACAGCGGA classification=0
sequencerecord=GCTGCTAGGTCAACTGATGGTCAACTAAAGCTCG classification=0
sequencerecord=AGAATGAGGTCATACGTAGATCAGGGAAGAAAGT classification=1
sequencerecord=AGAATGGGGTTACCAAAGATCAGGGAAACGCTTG classification=0
sequencerecord=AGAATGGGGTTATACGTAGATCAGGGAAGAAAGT classification=0

// query Hello, I need to know if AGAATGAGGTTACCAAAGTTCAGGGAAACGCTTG has measured PBM binding z-score not below 5. Thanks!
// result 0

// query Hello, I need to know if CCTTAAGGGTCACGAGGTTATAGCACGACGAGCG has measured PBM binding z-score not below 5. Thanks!
// result 1

// query Hello, I need to know if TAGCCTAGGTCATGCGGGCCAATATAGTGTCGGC has measured PBM binding z-score not below 5. Thanks!
// result 0

// query Hello, I need to know if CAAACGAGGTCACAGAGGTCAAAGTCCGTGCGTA has measured PBM binding z-score not below 5. Thanks!
// result 1

// query Hello, I need to know if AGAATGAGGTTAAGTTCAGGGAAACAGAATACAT has measured PBM binding z-score not below 5. Thanks!
// result 0

// query Hello, I need to know if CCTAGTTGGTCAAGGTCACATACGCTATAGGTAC has measured PBM binding z-score not below 5. Thanks!
// result 0

// query Hello, I need to know if CCGAGAAGGTTACGAGGGGGCATTCAGTGCGAAT has measured PBM binding z-score not below 5. Thanks!
// result 0

// query Hello, I need to know if GATACGGGGTCAAGGCCAGAGTACGCGTATTGAT has measured PBM binding z-score not below 5. Thanks!
// result 1

// query Hello, I need to know if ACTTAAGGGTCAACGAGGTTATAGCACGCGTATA has measured PBM binding z-score not below 5. Thanks!
// result 1

// query Hello, I need to know if CAAACGAGGTCAAGGTCAAAGTCGGTTTGTGCCA has measured PBM binding z-score not below 5. Thanks!
// result 1

// query Hello, I need to know if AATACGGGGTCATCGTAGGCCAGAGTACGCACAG has measured PBM binding z-score not below 5. Thanks!
// result 1

// query Hello, I need to know if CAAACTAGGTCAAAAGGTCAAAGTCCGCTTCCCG has measured PBM binding z-score not below 5. Thanks!
// result 1

// query Hello, I need to know if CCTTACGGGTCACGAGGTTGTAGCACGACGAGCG has measured PBM binding z-score not below 5. Thanks!
// result 1

// query Hello, I need to know if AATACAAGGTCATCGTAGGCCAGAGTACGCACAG has measured PBM binding z-score not below 5. Thanks!
// result 1

// query Hello, I need to know if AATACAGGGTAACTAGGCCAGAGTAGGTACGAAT has measured PBM binding z-score not below 5. Thanks!
// result 0

// query Hello, I need to know if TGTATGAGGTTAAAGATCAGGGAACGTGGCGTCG has measured PBM binding z-score not below 5. Thanks!
// result 0

* * *

Test system: PPARg homodimer (NR concentration 180 nM)
Assay: PBM binding z-score (relative to random genomic background probes); higher = stronger binding; sequences stand for … in GC…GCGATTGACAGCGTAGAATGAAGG
Reported PBM binding z-score values for a set of sequences
Returns: the value as a bare number; no unit string appended.

Past entries and their recorded results:
sequencerecord=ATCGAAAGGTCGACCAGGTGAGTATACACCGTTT reported=1.28
sequencerecord=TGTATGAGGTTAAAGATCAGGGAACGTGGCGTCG reported=1.78
sequencerecord=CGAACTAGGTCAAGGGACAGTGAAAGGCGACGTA reported=1.42

// query Find the recorded PBM binding z-score belonging to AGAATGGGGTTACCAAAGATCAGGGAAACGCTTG and report it.
// result 1.96

// query Find the recorded PBM binding z-score belonging to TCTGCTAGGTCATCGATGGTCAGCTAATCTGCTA and report it.
// result 0.22

// query Find the recorded PBM binding z-score belonging to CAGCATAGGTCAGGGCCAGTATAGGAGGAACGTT and report it.
// result 1.42
